This document collects MIC values reported for Nocardia Asteroides ATCC9970.
Answer in µg/mL, number only, no unit symbol.

| structure | experimental endpoint | quantitative readout |
| --- | --- | --- |
| CC[C@H]1OC(=O)[C@H](C)C(=O)[C@H](C)[C@@H](O[C@@H]2O[C@H](C)C[C@H](N(C)CCF)[C@H]2O)[C@](C)(OCC=Cc2cnc3ccccc3c2)C[C@@H](C)C(=O)[C@H](C)[C@H]2NC(=O)O[C@@]21C | MIC | 0.39 |

Now consider a different molecule.
// query # returns recorded MIC (system: Nocardia Asteroides ATCC9970) for "CC[C@H]1OC(=O)[C@H](C)C(=O)[C@H](C)[C@@H](O[C@@H]2O[C@H](C)C[C@H](NC)[C@H]2OC(C)=O)[C@](C)(OCC=Cc2cnc3ccccc3c2)C[C@@H](C)C(=O)[C@H](C)[C@H]2NC(=O)O[C@@]21C"
// result 1.56
